Values were extracted from patent US20120214822A1.

molecular target: human active recombinant p38α-6His tagged (Homo sapiens); assay: P38 Alpha Enzyme Assay (AlphaScreen, biotinylated-ATF2 substrate); type: biochemical; conditions: p38 alpha enzyme inhibition; means of replicate determinations; 4 h pre-incubation at 37° C.; SD of assay 0.2-0.3 log units;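 note: 0.5 nM final p38α, reaction started with ATP and run 45 min at 37 °C, phospho-ATF2 read by antibody-based AlphaScreen, background wells quenched with EDTA before ATP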
Sequence (Q16539 whole entry): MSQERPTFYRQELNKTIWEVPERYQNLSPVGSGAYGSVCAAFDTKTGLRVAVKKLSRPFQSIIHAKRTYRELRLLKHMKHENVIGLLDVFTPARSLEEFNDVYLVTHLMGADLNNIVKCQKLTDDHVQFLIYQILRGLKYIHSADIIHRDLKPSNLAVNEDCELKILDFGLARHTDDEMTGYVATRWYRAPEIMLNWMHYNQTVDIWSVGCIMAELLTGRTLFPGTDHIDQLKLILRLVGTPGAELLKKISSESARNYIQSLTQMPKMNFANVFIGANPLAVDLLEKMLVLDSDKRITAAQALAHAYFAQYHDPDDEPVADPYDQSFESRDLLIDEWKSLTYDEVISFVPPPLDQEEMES
Counter-ions that a name gives are not always drawn.
measurement.name: pIC50

| compound | obs.value |
| --- | --- |
| Cc1ccc(C(=O)NC2CC2)cc1-n1ccnc(N[C@@H](c2ccccc2)[C@@H](C)CNC(C)(C)CO)c1=O | 9.3 |
| Cc1ccc(C(=O)NC2CC2)cc1-n1ccnc(NCc2cccc(Cl)c2)c1=O | 8.2 |
| Cc1ccc(C(=O)NC2CC2)cc1-n1ccnc(NC(C)(C)c2ccccc2OC2CCNCC2)c1=O | 9.3 |
| Cc1ccc(C(=O)NC2CC2)cc1-n1ccnc(N[C@@H](c2ccccc2)[C@@H](C)CN2CCCC2(C)C)c1=O | 9 |
| Cc1ccc(C(=O)NC2CC2)cc1-n1ccnc(NC(C)(C)c2ccccc2OCCN2CCNCC2)c1=O | 9.1 |
| CSc1ccccc1CNc1nccn(-c2cc(C(=O)NC3CC3)ccc2C)c1=O | 8.2 |
| Cc1ccc(C(=O)NC2CC2)cc1-n1cc(Cl)nc(NCc2ccccc2)c1=O | 7.2 |
| Cc1ccc(C(=O)NC2CC2)cc1-n1ccnc(N[C@@H](c2ccccc2)C2CCNCC2)c1=O [Example 101, trifluoroacetate] | 7.4 |
| Cc1ccc(C(=O)NC2CC2)cc1-n1ccnc(N2CCN(CCN3CCCC3)C(c3ccccc3)C2)c1=O (stereo not drawn) | 7 |
